Reported koff values are given for each entry in this list.
- experimental system: T1, cynomolgus monkey (cyno) complement protein C5 (cynomolgus monkey, UniProt A0A2K5U1T1 19-1676)
- T1 construct: also called cC5; cyno C5
- assay details: SPR (Biacore)
Supply the numeric figure in s⁻¹, leaving out any unit text.

Examples with answers:
>  <binder>
LCP0146 (VHH, llama anti-C5 VHH, tested as VHH-His fusion; not shown: His-tag) VHH: EVQLVESGGGLVQAGGSLRLSCAASGRAFSDYAMAWFRQAPGKEREFVAGIGWSGGDTLYADSVRGRFTNSKDNAKNRMSLQMNSLKPEDTAVYYCAARQGQYIYSSMRSDSYDYWGQGTQVTVSS

>  <unit text>
s⁻¹

>  <koff>
0.000244

$$$$
>  <binder>
LCP0296 (VHH, llama anti-C5 VHH, tested as VHH-His fusion; not shown: His-tag) VHH: EVQLVESGGGVVQAGDSLTLTCTAPVGTISDYGMGWFRQAPGKEREFVASISWGGMWTDYADSVKGRFTISRDNDKNAVYLRMNSLNAEDTAVYYCGRGRMYRGIGNSLAQPKSYGYWGQGTQVTVSS

>  <unit text>
s⁻¹

>  <koff>
0.000106

$$$$
>  <binder>
LCP0143 (VHH, llama anti-C5 VHH, tested as VHH-His fusion; not shown: His-tag) VHH: EVQLVESGGGLVQAGGSLRLSCAAPEMGATINVMAWYRQAPGKQRELVARLPLDNNIDYGDFAKGRFTISRDITRNTVYLQMNNLKPDDTAVYYCNVLLSRQINGAYVHWGQGTQVTVSS

>  <unit text>
s⁻¹

>  <koff>
0.000124

$$$$
>  <binder>
LCP0115 (VHH, llama anti-C5 VHH, tested as VHH-His fusion; not shown: His-tag) VHH: EVQLVESGGGLVQAGGSLRLSCAASGRTFSGILSPYAVGWFRQAPGKGREFVSTITSGGSAIYTDSVKGRFTLSRDNAKDTVYLQMNSLKPEDTAVYYCAVRTRRYGSNLGEVPQENEYGYWGQGTQVTVSS

>  <unit text>
s⁻¹

>  <koff>
1.02e-05

$$$$
>  <binder>
LCP0123 (VHH, llama anti-C5 VHH, tested as VHH-His fusion; not shown: His-tag) VHH: EVQLVESGGGLVQAGGSLTLSCAMSGGTRPFEDYVMAWFRQATGKEREFVATITWMGETTYYKDSVNGRFAISRDNAENTVALQMNSLEPEDTAVYFCAAHSRSSFSTSGGRYNPRPTEYDYWGQGTQVTVSS

>  <unit text>
s⁻¹

>  <koff>
0.000381

$$$$

Quick check: koff of LCP0095 (VHH, llama anti-C5 VHH, tested as VHH-His fusion; not shown: His-tag) VHH: EVQLVESGGGLVQAGGSLRLSCTASGRTISTTVMAWFRQAPGKEREFVAADHWGDAGTVYADSVKGRFTISRDNAKNTVYLQMNYLKPEDTSVYYCAARPPTYVGTSRDSRAYDYWGQGTQVTVSS ?
0.00168

Quick check: koff of LCP0136 (VHH, llama anti-C5 VHH, tested as VHH-His fusion; not shown: His-tag) VHH: EVQLVESGGGLVQPGESLRLSCAISGFAFTDVGMSWVRQAPGKGLEWVSSISSGSSITTYSDSVKGRFTISRDNARNTLFLQMNSLKPEDTAVYYCGRYYCTGLGCHPRRDSALWGQGTQVTVSS ?
0.000251

Quick check: koff of LCP0302 (VHH, llama anti-C5 VHH, tested as VHH-His fusion; not shown: His-tag) VHH: EVQLVESGGGLVQAGGSLRLSCAASGRTFSGILSAYAVGWFRQAPGKEREFVSTITSGGSTLSADSVKGRFTLSRDNAKDTVYLQMNSLKPEDTAVYYCAVRTWPYGSNRGEVPTENEYGHWGQGTQVTVSS ?
2.38e-05
